- measurement-target: T1, RNAse S-protein (bovine, UniProt P61823 47-150)
- T1 construct: range 21-124; Numbers count on mature RNAse A; also called Pro-S
- T1 sequence (looked up): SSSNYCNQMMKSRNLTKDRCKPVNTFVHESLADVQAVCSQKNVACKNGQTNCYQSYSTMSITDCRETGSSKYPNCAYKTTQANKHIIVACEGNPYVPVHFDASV
- protocol-notes: isothermal titration calorimetry
readout: Kd (nM)
The reply should contain only the number, in nM.

Answer with the recorded Kd for the binder listed here: GDYNKDGWYEELELGPPPKETAAAKFERQHMDSSTSAA (also called LBT-S-peptide fusion; LBT tagged S-peptide analog) [LBT-GPPP-S-Peptide]
300
